Where these numbers come from: paper PMC6017732

# ASSAY_SYSTEM: SET7 (Homo sapiens)
# ASSAY_DETAILS: AlphaLISA SET7 inhibition assay
# Type: biochemical
# EXPERIMENTAL_SETUP: AlphaLISA assay, SET7
PROPERTY_NAME: pIC50
Answers are plain numbers, as −log10 of the molar value.

These recorded examples may help you get a feel for the data.
>>> print(df.to_string())
                                   compound  obs_value
0  O=C(CCC(=O)N/N=C/c1cc([N+](=O)[O-])ccc1Cl)NCc1ccccc1 [DC-S314]       4.34
1  O=C(NNC(=O)c1ccc([N+](=O)[O-])cc1)c1ccc(-c2ccccc2)cc1 [DC-S334]       5.00
2  O=C(NN=Cc1ccc(-c2ccccc2Cl)o1)c1ccc([N+](=O)[O-])cc1 [DC-S364]       5.43

In the following, a different compound is considered.
Notebook: pull reported pIC50 for SET7 (Homo sapiens), entry O=C(N/N=C/c1cc([N+](=O)[O-])ccc1Cl)c1ccc(-c2ccccc2)cc1 [DC-S303] 5.96

====

Exercise: for every item that follows, state its recorded inhibition at 100 µM.
# ASSAY_SYSTEM: UniProtKB Q8WTS6
# Sequence (Q8WTS6 1-366): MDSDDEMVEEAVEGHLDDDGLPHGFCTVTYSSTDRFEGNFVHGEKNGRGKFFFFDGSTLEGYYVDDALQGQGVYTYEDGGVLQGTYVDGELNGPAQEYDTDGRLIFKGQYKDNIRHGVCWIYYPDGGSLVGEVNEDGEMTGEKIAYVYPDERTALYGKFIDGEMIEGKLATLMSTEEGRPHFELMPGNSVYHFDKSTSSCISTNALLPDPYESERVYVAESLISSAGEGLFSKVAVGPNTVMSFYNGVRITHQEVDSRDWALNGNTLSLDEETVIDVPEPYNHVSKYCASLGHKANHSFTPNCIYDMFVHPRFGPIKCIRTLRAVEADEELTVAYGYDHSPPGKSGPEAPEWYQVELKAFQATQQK
# ASSAY_DETAILS: AlphaLISA SET7 inhibition assay
# Type: biochemical
# EXPERIMENTAL_SETUP: AlphaLISA assay, SET7, 100 μM; read-out: Inhibition Ratio at 100 μM/%
Give bare numbers, in %.

Some compounds with recorded inhibition at 100 µM:
                              smiles_record         property_name  unit_of_measure  obs_value
0  O=C(NN=Cc1ccc(Cl)s1)c1ccc([N+](=O)[O-])cc1  inhibition at 100 µM                %         32
1  O=C(NNC(=O)c1ccc(-c2ccccc2)cc1)c1ccc(F)cc1  inhibition at 100 µM                %         -6
2  COc1ccc(/C=N/NC(=O)c2ccc(-c3ccccc3)cc2)cc1O  inhibition at 100 µM                %          8
3  COc1cc(/C=N/NC(=O)c2ccc(-c3ccccc3)cc2)ccc1OC(C)=O  inhibition at 100 µM                %         94
4  O=C(NN=Cc1cc2c(cc1[N+](=O)[O-])OCO2)c1ccc([N+](=O)[O-])cc1  inhibition at 100 µM                %         -1

# batch: return inhibition at 100 µM for each of the 2 compounds below
1. O=C(NN=Cc1ccccc1OC(=O)c1ccc(Cl)cc1)c1ccc([N+](=O)[O-])cc1
2. O=C(NN=Cc1ccccc1OC(=O)c1ccc([N+](=O)[O-])cc1)c1ccc([N+](=O)[O-])cc1

1: 6; 2: 20

Count: 2. Required value per item: inhibition at 100 µM.
1. Nc1ccccc1C(=O)N/N=C/c1cc([N+](=O)[O-])ccc1Cl
2. O=C(N/N=C/c1cc([N+](=O)[O-])ccc1Cl)c1cccc(O)c1

14
37

====

# ASSAY_SYSTEM: UniProt Q8WTS6
# ASSAY_DETAILS: 3H-labeled radioisotope methylation assay
# Type: biochemical
# EXPERIMENTAL_SETUP: 3H radioactive methylation assay
# Description: As for ^3Hradioactive methylation assay, SAH was used as the reference compound and the compounds were tested in 10 concentrations in duplicate in modified Tris buffer (1× assay buffer). The following materials were purchased: SET7 (Enzo, Cat. No. ALX-201-178, New York, NY, USA), [^3H]-SAM (PerkinElmer Inc., Lot. No. 1790854), SAH (Sigma, Cat. No. A9384-25MG, St. Louis, MO, USA) and 384-well Flashplate (Perkin Elmer, Cat. No. SMP410A001PK,). […] The data was read on Microbeta. […]
Field: IC50. Provide a value for each of the compounds that follow.
One number for each entry, in µM.

For every item in the list below, what is its measured IC50?
1. COc1ccc(C(=O)N/N=C/c2ccc([N+](=O)[O-])cc2)cc1Br [DC-S285]
2. Nc1ncnc2c1ncn2[C@@H]1O[C@H](CSCC[C@H](N)C(=O)O)[C@@H](O)[C@H]1O [SAH, reference compound]

19.5
5.4

Please look up its IC50: O=C(N/N=C/c1cc([N+](=O)[O-])ccc1Cl)c1ccc(-c2ccccc2)cc1 [DC-S303] 2.9

====

# Test system: Jurkat leukemia cell line
# ASSAY_DETAILS: Cell viability assay (alamarBlue / MTT), Jurkat
# Format: cell-based
# EXPERIMENTAL_SETUP: Homo sapiens, 72 h, approximately 72 h
PROPERTY_NAME: pIC50
One number for each entry, as −log10 of the molar value.

Which pIC50 is listed for `COc1ccc(C(=O)N/N=C/c2ccc([N+](=O)[O-])cc2)cc1Br` ? 5.66

====

# ASSAY_SYSTEM: UniProt:Q8WTS6
# ASSAY_DETAILS: AlphaLISA SET7 inhibition assay
# Format: biochemical
# EXPERIMENTAL_SETUP: AlphaLISA assay, SET7, 100 μM; read-out: Inhibition Ratio at 100 μM/%
PROPERTY_NAME: inhibition at 100 µM (%)
Answers are plain numbers, in %.

                              smiles_record  obs_value
0  Cc1c(C=NNC(=O)c2ccc([N+](=O)[O-])cc2)cnn1C        -11
1  O=C(NN=Cc1ccc([N+](=O)[O-])cc1)c1cccc(Cl)c1         -1
2  O=C(CCc1ccccc1)NNC(=O)c1ccc(-c2ccccc2)cc1         -6
3  O=C(NN=Cc1cn(Cc2ccc(Cl)cc2Cl)c2ccccc12)c1ccc([N+](=O)[O-])cc1          6
4   O=C(NNC(=O)c1ccc(-c2ccccc2)cc1)c1ccccc1          1

Okay, here is my list. What is inhibition at 100 µM for each of these?
1. O=C(N/N=C/c1cc([N+](=O)[O-])ccc1Cl)C(c1ccccc1)c1ccccc1
2. O=C(NN=Cc1ccc([N+](=O)[O-])cc1)c1ccc(CSc2ccccc2)cc1

1. 46
2. 9

Field: inhibition at 100 µM. Fill in for each record below.
1. COc1ccc(C(=O)NNC(=O)c2ccc(-c3ccccc3)cc2)cc1
2. O=C(NNC(=O)C(F)(F)F)c1ccc(-c2ccccc2)cc1

1: 49; 2: -13

====

# ASSAY_SYSTEM: SET7 (Homo sapiens, UniProt Q8WTS6)
# ASSAY_DETAILS: AlphaLISA SET7 inhibition assay
# Format: biochemical
# EXPERIMENTAL_SETUP: AlphaLISA assay, SET7, 100 μM; read-out: Inhibition Ratio at 100 μM/%
PROPERTY_NAME: inhibition at 100 µM (%)
Give bare numbers, in %.

>>> df
                              smiles_record  obs_value
0  O=C(N/N=C/c1c(Cl)cccc1Cl)c1ccc(-c2ccccc2)cc1         -6
1     COC(=O)N/N=C/c1cc([N+](=O)[O-])ccc1Cl         17
2  O=C(N/N=C/c1cccc(Cl)c1Cl)c1ccc(-c2ccccc2)cc1         -3
3  O=C(NN=Cc1ccc[nH]1)c1ccc([N+](=O)[O-])cc1         10
4  O=C(NN=Cc1cc2c(cc1Br)OCO2)c1ccc([N+](=O)[O-])cc1         96

Next item in the queue.
Request the reported inhibition at 100 µM associated with `Nc1ccc(C=NNC(=O)c2ccc([N+](=O)[O-])cc2)cc1` 21

====

Consider the following compounds; for each one, report its IC50.
# ASSAY_SYSTEM: SET7 (Homo sapiens)
# ASSAY_DETAILS: AlphaLISA SET7 inhibition assay
# Assay type: biochemical
# EXPERIMENTAL_SETUP: AlphaLISA assay, SET7
# Experimental: AlphaLISA assays were applied to determine the inhibitory activity targeting SET7. The purified SET7 protein was incubated in modified Tris buffer in 384-well plates (Perkin Elmer, Cat. No. 6007299, Waltham, MA, USA) at room temperature for 15 min. The compounds were transferred to the assay plate using Echo in 100% DMSO, and substrate solution was added to each well to start the reaction. […] The endpoint was evaluated with EndSpire in Alpha mode. […]
Answers are plain numbers, in µM.

Worked cases, IC50 given:
>>> print(df.to_string())
                              smiles_record  obs_value
0  COc1ccc(C(=O)N/N=C/c2ccc([N+](=O)[O-])cc2)cc1Br        9.3
1  COc1cc(/C=N/NC(=O)c2ccc(-c3ccccc3)cc2)ccc1OC(C)=O         20

Switching to the query record.
Bench note: what IC50 did `O=C(NN=Cc1cc2c(cc1Br)OCO2)c1ccc([N+](=O)[O-])cc1` show? 3.4
